Assay: Intrinsic clearance in mouse liver microsomes
Format: ADME, Microsome
Conditions: read-out: CLH
# MET = microsomal CLint below 50 µL/min/mg (exclusive); NOT MET = microsomal CLint at/above 50 µL/min/mg

Solved entries:
| COMPOUND | ASSIGNED_CLASS |
| --- | --- |
| O=C(NCC1CCC(F)(F)CC1)c1c(Cl)ccc2nc(N3CCC(NCCO)C3)ccc12 (stereo unspecified) | MET |
| O=C(NCC1CCCC(F)(F)C1)c1c(Cl)ccc2nc(N3CC[C@@H](F)C3)ccc12 (stereo partly specified) | NOT MET |
| C[C@@H]1CCC[C@@](O)(CNC(=O)c2c(Cl)ccc3nc(N4CCC(N(C)C)C4)ccc23)C1 (stereo partly specified) | NOT MET |
| O=C(NC[C@]1(O)CCCC(F)(F)C1)c1c(Cl)ccc2nc(N3CC[C@@H](F)C3)ccc12 | MET |

Field: next compound
Strictly below 50 µL/min/mg in microsomal CLint? "C[C@@H]1CCC[C@@](O)(CNC(=O)c2c(Cl)ccc3nc(N4CC[C@@H](C(C)(C)O)C4)ccc23)C1" NOT MET

Entry source: ChEMBL document CHEMBL4340547
